Where do the numbers come from? From patent EP0478292A1.

- ASSAYED_SYSTEM: Purine nucleoside phosphorylase (PNPase) (Homo sapiens, UniProt P00491)
- Construct: Purine nucleoside phosphorylase (PNPase) was purified from human erythrocytes; from tissue; host or cells: human erythrocytes
- Sequence (P00491 whole entry): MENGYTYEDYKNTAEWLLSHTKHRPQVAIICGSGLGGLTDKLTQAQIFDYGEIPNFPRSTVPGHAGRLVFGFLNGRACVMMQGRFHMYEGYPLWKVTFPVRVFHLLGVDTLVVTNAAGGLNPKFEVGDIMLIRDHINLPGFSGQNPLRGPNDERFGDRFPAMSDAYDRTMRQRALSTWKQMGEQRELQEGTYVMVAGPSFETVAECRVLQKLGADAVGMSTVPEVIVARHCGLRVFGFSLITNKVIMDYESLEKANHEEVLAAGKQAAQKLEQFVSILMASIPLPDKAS
- ASSAY_PROCEDURE: Inhibition of purine nucleoside phosphorylase, spectrophotometric assay of inosine phosphorolysis coupled with xanthine oxidase
- Assay type: biochemical
EXPERIMENTAL_READOUT: pKi
pKi is defined as minus the log10 of a concentration measured in mol/L.

Suppose we examine the molecule CCOP(=O)(O)CP(=O)(O)CCCCCn1cnc2c(O)nc(N)nc21 ; what pKi value has been reported?
6.06
